Reference source for all entries: paper PMC6331714

- EXPERIMENTAL SYSTEM: X-linked inhibitor of apoptosis protein (XIAP) BIR3 domain
- EXPERIMENT DESCRIPTION: fluorescence polarisation
READOUT LABEL: pIC50
Keep in mind that pIC50 stands for -log10 of concentration in molar terms.

What does the record list as pIC50 for AVPI [AVPI, N-terminal tetrapeptide binding motif of Smac/DIABLO (Ala-Val-Pro-Ile)] ?
5.94
